- Tested on: OVCAR-5 ovarian
- Assay Notes: NCI tumour cell line growth inhibition, 48 h
Readout Type: TGI

Before answering, review these 5 worked examples.
compound=COc1ccccc1CNCc1nc2ccccc2[nH]1 readout_type=TGI result="> 100 µM"
compound=Cc1ccc(C(=O)NC2CCCCC2)cc1-c1ccc(C(=O)NCC2CC2)cc1 readout_type=TGI result="> 25 µM"
compound="Cn1cc(C2=C(c3c4n(c5ccccc35)CCC(CN)CC4)C(=O)NC2=O)c2ccccc21 (stereo unspecified)" readout_type=TGI result="9.14 µM"
compound=COc1ccc(OC)c2cc(C3(C)SCCCS3)ccc12 readout_type=TGI result="> 100 µM"
compound="CCCCCCCCCCCC(=O)OCC1OC(n2cc(F)c(=O)[nH]c2=O)C(N)C(O)C1O (stereo unspecified)" readout_type=TGI result="> 100 µM"

Consider the record given below.
Request: # TGI lookup, item COC(=O)C1=CC2OC13CC1CCC3(C2=O)C1(C)C (stereo unspecified)
Result: 33.2 µM

---

- Tested on: SF-539 CNS
- Assay Notes: NCI tumour cell line growth inhibition, 48 h
Reported TGI values follow for various molecules

molecule="CCCCCCCCCC(=O)OCC1OC(n2cc(F)c(=O)[nH]c2=O)C(N)C(OC(=O)CCCCCCCCC)C1O (stereo not drawn)" tested_target="SF-539 CNS" result="33.7 µM"
molecule=CC12CC3CC(C)(C1)CC(N=[N+]=[N-])(C3)C2 tested_target="SF-539 CNS" result="> 100 µM"
molecule=CSc1sc(=S)sc1SC tested_target="SF-539 CNS" result="> 100 µM"
molecule=CC(=C(C(=O)O)C(=O)O)c1cc(-c2cccs2)cc(-c2ccc(Cl)cc2)c1O tested_target="SF-539 CNS" result="29.8 µM"
molecule="CN=S(=O)(C[C@]1(O)CC2OC1C1OC(C)(C)OC21)c1ccccc1 (stereo partly drawn)" tested_target="SF-539 CNS" result="> 100 µM"

Request: # TGI lookup, item COC(=O)Nc1nc2ccc(Oc3ccc(NC(=O)Nc4cccc(Cl)c4)cc3)cc2[nH]1
Result: 6.85 µM

---

- Test system: SNB-75 CNS
- Assay Notes: NCI tumour cell line growth inhibition, 48 h; in the data active = GI50 below about 0.43 µM; inactive = the rest
Respond using exactly one of the listed classes: YES for active, NO for inactive

compound=NC(=O)Oc1cc(OC(N)=O)cc(N(CCCl)CCCl)c1 qualitative_label=NO
compound="CC(=O)OCC1OC(S[As](C)C)C(OC(C)=O)C1OC(C)=O (stereo not given)" qualitative_label=NO
compound=O=C(Nc1ccc(Br)c(Cl)c1)c1cc(F)ccc1O qualitative_label=NO
compound=COc1ccc2c(c1)Cc1c-2c(NN)nc2ccccc12 qualitative_label=NO
compound=CN1CCN(Cc2ccc(Nc3ncc(Cl)c(Nc4ccccc4S(=O)(=O)N(C)C)n3)cc2)CC1 qualitative_label=YES

Request: State the result this test recorded for Cc1cccc(N=C2c3cc([N+](=O)[O-])ccc3-c3c2cc([N+](=O)[O-])cc3[N+](=O)[O-])c1 .
Result: NO

---

- System: CCRF-CEM leukemia
- Assay Notes: NCI tumour cell line growth inhibition, 48 h; in the data active = GI50 below about 0.43 µM; inactive = the rest
Respond using exactly one of the listed classes: active, inactive

Before answering, review these 5 worked examples.
compound=CCOn1cc(C2=C(c3c[nH]c4ccccc34)C(=O)NC2=O)c2ccccc21 qualitative_label=active
compound=COc1cc(C(=O)n2nc(N3CCN(C)CC3)c3cc(N)ccc32)cc(OC)c1OC qualitative_label=inactive
compound="[N-]=[N+]=CC(=O)OCC(N)C(=O)O (stereo not given)" qualitative_label=inactive
compound=Cc1ccc2sc3c(NCCCNCCO)nc4ccccc4c3c(=O)c2c1 qualitative_label=inactive
compound="CC(=O)OCC1OC(S[As](C)C)C(OC(C)=O)C1OC(C)=O (stereo not given)" qualitative_label=active

Request: State the result this test recorded for Cc1cc(C)nc(SC2=C(Nc3cccc(Cl)c3)C(=O)N(Cc3ccccc3)C2=O)n1 .
Result: inactive

Request: Quick one: CCN(CC)CCOc1cc2c(C(=O)OC)c(C)oc2cc1C(C)=O
Result: inactive

Request: Quick one: COc1ccc(-c2nc(-c3nc4cc(C)c(C)cc4[nH]3)cc3c2[nH]c2ccccc23)cc1
Result: inactive

Request: Quick one: CCCC(=O)NNc1[nH]c(-c2ccc(OC)cc2)cc1C(=O)OCC
Result: inactive

Request: Quick one: C#C[C@@]1(O)[C@@H](CO)O[C@@H](n2cc(F)c3c(N)ncnc32)[C@@H]1O
Result: active

---

- System: RXF 393 renal
- Assay Notes: NCI tumour cell line growth inhibition, 48 h
We use 7 µM as the dividing line for TGI: on or above the line is 1, below is 0.

Before answering, review these 4 worked examples.
compound="O=c1[nH]c(=O)n(C2CC(O)C(CO)O2)c2nc3ccc4ccccc4c3nc12 (stereo not given)" qualitative_label=1
compound="COC(=O)C1C(=O)O[C@@H](c2ccc(OC)cc2OC)C1C(=O)OC (stereo not given in full)" qualitative_label=1
compound=CCN(CC)c1ccc2c(c1)N=C1N=CC=CN1C2(c1ccc(N(C)C)cc1)c1ccc(N(C)C)cc1 qualitative_label=1
compound=COc1cc(/C=N/NC2=NCCCN2)ccc1O qualitative_label=1

Request: Hi, just wondering whether CC1(C)N=C(N)N=C(N)N1c1cccc(OCc2cccc([N+](=O)[O-])c2)c1 shows TGI of 7 µM or higher.
Result: 1

Request: Quick one: Cc1ccc(C(=O)NC2CCCCC2)cc1-c1ccc(C(=O)NCC2CC2)cc1
Result: 1

Request: Quick one: COc1ccccc1N1C(=O)/C(=C\c2cc(OC)c(OC)c(OC)c2)S(=O)(=O)C1c1ccccc1 (stereo not given)
Result: 1

Request: Quick one: COc1ccc(Nc2ccnc(NCCCNc3ccnc4cc(Cl)ccc34)n2)cc1
Result: 0

Request: Quick one: O=C1CCSc2c(cnc3ccccc23)N1
Result: 1

---

Reported log10 TGI values follow for various compounds
- Tested on: SK-MEL-2 melanoma
- Assay Notes: NCI tumour cell line growth inhibition, 48 h
Please keep in mind that the values are log10 of TGI expressed in µM.

Before answering, review these 4 worked examples.
compound="C=C1CC(COc2ccc3ccc(=O)oc3c2)(c2ccccc2)OC1=O (stereo unspecified)" tested_target="SK-MEL-2 melanoma" recorded_number=0.62
compound=O=C1/C(=C/c2ccc(Cl)cc2)CN(C(=O)C(Cl)Cl)C/C1=C\c1ccc(Cl)cc1 tested_target="SK-MEL-2 melanoma" recorded_number=0.49
compound=C/C(=C\c1c[nH]c2ccccc12)[N+](=O)[O-] tested_target="SK-MEL-2 melanoma" recorded_number=1.32
compound=Cc1cccc(N=C2c3cc([N+](=O)[O-])ccc3-c3c2cc([N+](=O)[O-])cc3[N+](=O)[O-])c1 tested_target="SK-MEL-2 melanoma" recorded_number=1.51

Request: # log10 TGI lookup, item CCOC(=O)c1c(Cl)c2c(n1Cc1cc(OC)cc(OC)c1)-c1oncc1CCC2
Result: 0.61

Request: Quick one: CC(C)(CCCCC(C)(C)NCC1COc2ccccc2O1)NCC1COc2ccccc2O1 (stereo unspecified)
Result: 0.82

Request: Quick one: COc1ccc(/C=C/[N+](=O)[O-])cc1
Result: 1.72

Request: Quick one: COc1cc(/C=C2\N=C(c3ccccc3)N(/N=C/c3cc4cc(C)ccc4nc3Cl)C2=O)cc(OC)c1OC
Result: 1.68

Request: Quick one: NC(=O)Oc1cc(OC(N)=O)cc(N(CCCl)CCCl)c1
Result: 1.68

---

Reported GI50 values follow for various molecules
- System: SF-295 CNS
- Assay Notes: NCI tumour cell line growth inhibition, 48 h

Before answering, review these 5 worked examples.
compound_smiles=C/C(=C\c1c[nH]c2ccccc12)[N+](=O)[O-] result="7.97 µM"
compound_smiles=O=C1/C(=C/C(Cl)=C/c2ccccc2)SC(=S)N1CCc1ccc(O)cc1 result="3.57 µM"
compound_smiles=O=C(/C=C\Sc1nccc(C(F)(F)F)n1)c1ccc(Br)cc1 result="> 100 µM"
compound_smiles=O=C(Nc1ccc(Br)c(Cl)c1)c1cc(F)ccc1O result="0.933 µM"
compound_smiles=COC(=O)Nc1nc2ccc(Oc3ccc(NC(=O)Nc4cccc(Cl)c4)cc3)cc2[nH]1 result="0.777 µM"

Request: # GI50 lookup, item COc1cc(-c2nc3ccccc3s2)ccc1OCc1nc2n(n1)S(=O)(=O)c1ccccc1N2C
Result: > 100 µM

Request: Quick one: CCCC(=O)NNc1[nH]c(-c2ccc(OC)cc2)cc1C(=O)OCC
Result: 38 µM

Request: Quick one: COc1cccc2c1c1nc3cc(C)c(C)cc3nc1n2CCN(C)C
Result: 2.17 µM

Request: Quick one: CC/C(=C(\CC)c1ccc(OCCN(CC)CC)cc1)c1ccc(OCCN(CC)CC)cc1
Result: 1.37 µM

Request: Quick one: CN1CCN(Cc2ccc(NC(=O)c3cncc(C#Cc4c(N)ncc5cc(F)ccc45)c3)cc2C(F)(F)F)CC1
Result: 6.47 µM
